Values from patent US20220112295A1

Biological target: T1, native human CD30L expressed on Ramos cells (human, UniProt P32971 1-234)
T1 construct: It is used here for the native protein on human B cell lines; also called huCD30L; Native huCD30L
T1 sequence: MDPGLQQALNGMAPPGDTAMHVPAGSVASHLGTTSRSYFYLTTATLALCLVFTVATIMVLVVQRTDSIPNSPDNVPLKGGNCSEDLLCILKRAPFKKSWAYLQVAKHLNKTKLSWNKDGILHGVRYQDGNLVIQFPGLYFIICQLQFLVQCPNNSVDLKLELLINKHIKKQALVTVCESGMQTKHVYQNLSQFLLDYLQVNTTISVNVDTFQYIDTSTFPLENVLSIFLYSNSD
Test: FACS Kd method on Ramos cells, equilibrium, KinExA n-curve analysis
Readout: Kd
A complete answer gives the number and then names the unit.

Worked cases, answers included:
- Binder: "Antibody B (antibody, V domains shown, also called mAb B) VH: QVQLQESGPGLVKPSETLSLTCTVSGGSISSYYWTWIRQPAGKGLEWIGRIYTSGITNYNPSLKSRVTMSVDTSKNQFSLKLSSVTAADTAVYYCARERVVGASRYYYYGVDVWGQGTTVTVSS VL: QSALTQPASVSGSPGQSITISCTGTSSDVGLYNYVSWYQQHPDKAPKLMIFEVNNRPSGVSNRFSGSNSGNTASLTISGLQAEDEADYYCSSYTSSSTWVFGGGTKLTVL"
  Kd: "0.00743 nM"
- Binder: "Antibody D (antibody, V domains shown, also called mAb D) VH: QVQLQESGPGLVKPSETLSLTCTVSGGSISSYSWSWIRQPAGKGLEWIGRTSTSGRNNYNPSLKSRVTMSVDTSKNQFSLKLNSVTAADTAVYYCARDFTIAARRYYYYGMDVWGQGTTVTVSS VL: QSALTQPASVSGSPGQSITISCTGTSSDIGLYNYVSWYQQHPGKAPKLIIYEVINRPSGVSNRFSGSESGNTASLTISGLQAEDEANYYCSSYTSSSTWVFGGGTKLTVL"
  Kd: "0.0119 nM"
- Binder: "Antibody C (antibody, V domains shown, also called mAb C) VH: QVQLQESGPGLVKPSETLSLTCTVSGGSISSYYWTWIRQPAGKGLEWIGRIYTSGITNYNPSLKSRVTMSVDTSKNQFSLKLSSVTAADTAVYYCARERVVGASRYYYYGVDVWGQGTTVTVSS VL: QSALTQPASVSGSPGQSITISCTGTSSDIGLYDYVSWYQQHPDRAPKLIIFEVNNRPSGVSYRFSGSNSGNTASLTISGLQAEDEADYYCSSYTSSSTWVFGGGTKLTVL"
  Kd: "0.044 nM"
- Binder: "Antibody F (antibody, V domains shown, also called mAb F) VH: QVQLQESGPGLVKPSETLSLTCTVSGGSISSYYWSWIRQPAGKGLEWIGRIFASGSTNYNPSLRSRVTMSRDTSKNQFSLKLSSVTAADTAVYYCAKERVGVQDYYHYSGMDVWGQGTTVTVSS VL: QSALTQPASVSGSPGQSITISCTGTSSDVGLYNYVSWYQQQPGKAPKLMIYEVSKRPSGVSNRFSGSTSGNTASLTISGLQADDEADYSCSSYTSSSTWVFGGGTKLTVL"
  Kd: "0.0357 nM"
- Binder: "Antibody E (antibody, V domains shown, also called mAb E) VH: QVQLQESGPRLVKPSETLSLTCTVSGGSITNNYWSWIRQPAGKGLEWIGRVYSSGLTNYKPSLKSRVTMSVDTSKNQFSLRLNSVTAADTAVYYCARERATVTTRYHYDGMDVWGQGTSVTVSS VL: QSALTQPASVSGSPGQSITISCTGSSSDIGTYNYVSWYQQYPGKAPELMIYEVNNRPSGVSDRFSGSTSGNTASLTISGLQANDEADYYCSSYSSSSTWVFGGGTKLTVL"
  Kd: "0.0521 nM"

Next, consider the following binder.
Ask: Which Kd is reported for this binder? Antibody A (antibody, V domains shown, Human antibody (XenoMouse); also called mAb A; anti-hCD30L A) VH: QVQLQESGPGLVKPSETLSLTCTVSGGSISSYIWSWIRQPAGKGLEWIGRIYASGNTNYNPSLKSRVTMSVDTSKNQFSLKLSSMTAADTAVYYCARDYRVAGTYYYYYGLDVWGQGTTVTVSS VL: QSALTQPASVSGSPGQSITISCTGTSSDVGVYDYVSWYQQHPGKAPKLMIYEVSNRPSGVSNRFSGSKSGNTASLTISGLQTEDEADYYCSSYTSRSTWVFGGGTKLTVL
Reply: 0.0255 nM
